Reference for the values: patent US20120129766A1

The entries below are paired with their reported EC50 (nM), pERK In Cell Western.
- tested target: T1, human β-klotho (human, UniProt Q86Z14 1-1044)
- T1 sequence (looked up): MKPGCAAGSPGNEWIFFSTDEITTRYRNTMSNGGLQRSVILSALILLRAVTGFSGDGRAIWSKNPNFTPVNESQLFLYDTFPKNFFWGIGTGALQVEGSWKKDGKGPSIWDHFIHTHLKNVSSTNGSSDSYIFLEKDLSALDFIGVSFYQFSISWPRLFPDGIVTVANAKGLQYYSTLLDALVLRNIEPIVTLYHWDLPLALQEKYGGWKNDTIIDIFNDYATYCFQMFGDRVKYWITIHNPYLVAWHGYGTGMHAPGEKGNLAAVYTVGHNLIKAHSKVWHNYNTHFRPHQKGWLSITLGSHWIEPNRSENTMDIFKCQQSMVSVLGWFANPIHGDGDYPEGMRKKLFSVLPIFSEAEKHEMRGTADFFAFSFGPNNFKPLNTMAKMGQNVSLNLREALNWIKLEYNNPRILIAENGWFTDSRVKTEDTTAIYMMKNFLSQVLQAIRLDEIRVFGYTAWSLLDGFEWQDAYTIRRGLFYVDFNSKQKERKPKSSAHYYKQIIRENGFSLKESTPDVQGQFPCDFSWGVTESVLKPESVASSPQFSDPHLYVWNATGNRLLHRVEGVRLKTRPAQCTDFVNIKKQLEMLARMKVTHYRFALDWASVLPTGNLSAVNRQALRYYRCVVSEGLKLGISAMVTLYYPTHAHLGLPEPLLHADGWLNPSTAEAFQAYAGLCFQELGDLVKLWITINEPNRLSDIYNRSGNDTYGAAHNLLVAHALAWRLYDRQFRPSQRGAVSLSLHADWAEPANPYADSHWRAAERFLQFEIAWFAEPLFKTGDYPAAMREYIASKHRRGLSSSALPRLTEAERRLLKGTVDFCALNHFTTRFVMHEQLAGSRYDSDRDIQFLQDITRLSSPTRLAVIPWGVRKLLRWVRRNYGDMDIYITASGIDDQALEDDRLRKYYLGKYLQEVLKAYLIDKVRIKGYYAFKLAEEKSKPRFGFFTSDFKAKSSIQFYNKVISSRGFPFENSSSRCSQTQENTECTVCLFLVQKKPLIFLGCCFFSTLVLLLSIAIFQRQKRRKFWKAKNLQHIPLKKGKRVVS
- assay method text: cell-based or functional assay

| binder | EC50 (nM), pERK In Cell Western |
| --- | --- |
| hFGF21(33-209)-V14pool 1-N-40 kDa bPEG-AL (ligand, 40 kDa branched PEG (aldehyde reagent) on the N-terminal amine) DSSPLLQFGGQVRQRYLYTDDAQETEAHLEIREDGTVGGAAHQSPESLLELKALKPGVIQILGVKTSRFLCQKPDGALYGSLHFDPEACSFRELLLENGYNVYQSEAHGLPLHLPGNRSPHRDPAPQGPARFLPLPGLPPALPEPPGILAPQPPDVGSSDPLAMVGPSQGRSPSYAS | 107 |
| hFGF21(33-209)-V58 (ligand) DSSPLLQFGGQVRQRYLYTDDAQQTEAHLEIREDGTVGGAAHQSPESLLQLKALKPGVIQILGVKTSRFLCQRPDGTLYGSLHFDPEACSFRELLLENGYNVYQSETHGLPLHLPGNRSPHRDPASQGPARFLPLPGLPPAPPEPPGILAPQPPDVGSSDPLAMVGPSQARSPSYAS | 3.6 |
| hFGF21(33-209)-V56 (ligand) DSSPLLQFGGQVRQRYLYTDDAQQTEAHLEIREDGTVGGAAHQSPESLLQLKALKPGVIQILGVKASRFLCQKPDGALYGSLHFDPEACSFRELLLENGYNVYQSETHGLPLHLPGNKSPHRDPASQGPARFLPLPGLPPAPPEPPGILAPQPPDVGSSDPLAMVGPSQARSPSYAS | 37 |
| hFGF21(33-209)-V83 (ligand) DSSPLLQFGGQVRQRYLYTDDAQQTEAHLEIREDGTVGGAADQSPESLLELKALKPGVIQILGVKTSRFLCQKPDGTLYGSLHFDPEACSFRELLLEDGYNVYQSEAHGLPLHLPGNRSPHCDPASRGPARFLPLPGLPPALPEPPGILAPQPPDVGSSDPLAMVGPSQARSPSYAS | 0.21 |
| hFGF21(33-209)-V54 (ligand) DSSPLLQFGGQVRQRYLYTDDAQQTEAHLEIREDGTVGGAAHQSPESLLELKALKPGVIQILGVKTSRFLCQKPDGTLYGSLHFDPEACSFRELLLENGYNVYQSEAHGLPLHLPGNRSPHRDPASQGPARFLPLPGLPPAPPEPPGILAPQPPDVGSSDPLAMVGPSQGRSPSYAS | 25 |
| hFGF21(33-209)-V87 (ligand) DSSPLLQFGGQVRQRYLYTDDACQTEAHLEIREDGTVGGAADQSPESLLQLRALRPGVIQILGVRTSRFLCQRPDGALYGSLHFDPEACSFRELLLEDGYNVYQSEAHGLPLHLPCNRSPHKDPAPRGPARFLPLPGLPPAPPEPPGILAPQPPDVGSSDPLAMVGPSQGRSPSYAS | 1.9 |
| hFGF21(33-209)-V80 (ligand) DSSPLLQFGGQVRQRYLYTDDAQQTEAHLEIREDGTVGGAADQSPESLLELKALKPGVIQILGVKTSRFLCQKPDGTLYGSLHFDPEACSFRELLLEDGYNVYQSEAHGLPLHLPGNRSPHCDPAPQGPARFLPLPGLPPALPEPPGILAPQPPDVGSSDPLAMVGPSQARSPSYAS | 2.2 |
| hFGF21(33-209)-V52 (ligand) DSSPLVQFGGQVRQRYLYTDDAQQTEAHLEIREDGTVGGAAHQSPESLLQLKALKPGVIQILGVKTSRFLCQKPDGALYGSLHFDPEACSFRELLLENGYNVYQSEAHSLPLHLPGNKSPHRDPASQGPARFLPLPGLPPALPEPPGILAPQPPDVGSSDPLSMVGPSQARSPSYAS | 66 |
